Source listed as patent US10562902B2.

pIC50: −log10 of the molar value.
What follows is a collection of pIC50 values obtained with IRAK4 kinase (Homo sapiens (Human), UniProt Q9NWZ3).
Sequence (Q9NWZ3 whole entry): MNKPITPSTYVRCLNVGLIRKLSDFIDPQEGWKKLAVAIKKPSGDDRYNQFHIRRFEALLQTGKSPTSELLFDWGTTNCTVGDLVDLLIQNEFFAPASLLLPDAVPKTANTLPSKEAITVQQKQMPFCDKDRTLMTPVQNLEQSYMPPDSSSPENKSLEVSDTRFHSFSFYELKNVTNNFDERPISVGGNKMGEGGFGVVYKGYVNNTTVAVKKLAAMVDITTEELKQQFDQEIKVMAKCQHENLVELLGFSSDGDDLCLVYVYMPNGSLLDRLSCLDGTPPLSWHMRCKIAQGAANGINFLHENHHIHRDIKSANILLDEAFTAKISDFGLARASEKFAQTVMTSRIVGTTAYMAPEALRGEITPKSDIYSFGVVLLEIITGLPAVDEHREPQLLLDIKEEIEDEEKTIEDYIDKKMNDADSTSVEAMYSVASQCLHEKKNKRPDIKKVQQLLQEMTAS

See these solved cases before continuing.
{"columns": ["Compound", "Target Or Test System", "pIC50"],
 "data": [
  ["Cn1cc(-n2ccc3nc(Nc4cc(C(N)=O)cs4)nc(O[C@H]4CCOC4)c32)cn1 [Example 132]", "IRAK4 kinase (Homo sapiens (Human), UniProt Q9NWZ3)", "≥ 7.00"],
  ["Cc1cc(Nc2nc(OC3CC(N4CCCCC4)C3)c3c(ccn3-c3cnn(C)c3)n2)sn1 (centres unmarked) [Example 62]", "IRAK4 kinase (Homo sapiens (Human), UniProt Q9NWZ3)", "≥ 7.00"],
  ["CC(=O)NCCCNc1nc(Nc2cc(C)ns2)nc2ccn(-c3cnn(C)c3)c12 [Example 9]", "IRAK4 kinase (Homo sapiens (Human), UniProt Q9NWZ3)", "6.00 to 7.00"]
]}

// query Give recorded pIC50 with IRAK4 kinase (Homo sapiens (Human), UniProt Q9NWZ3) for the following compound: Cc1cc(Nc2nc(OC3COC3)c3c(ccn3-c3cnn(C)c3)n2)sn1 [Example 61]
// result ≥ 7.00

// query Give recorded pIC50 with IRAK4 kinase (Homo sapiens (Human), UniProt Q9NWZ3) for the following compound: Cc1cc(Nc2nc(OC3CCOCC3)c3c(ccn3-c3ccnnc3)n2)sn1 [Example 102]
// result 6.00 to 7.00

----------
- Target Or Test System: IRAK4 kinase (Homo sapiens (Human), UniProt Q9NWZ3)
pIC50: −log10 of the molar value.
Reported values of pIC50 for individual entries

See these solved cases before continuing.
{"columns": ["Compound", "Target Or Test System", "pIC50"],
 "data": [
  ["Cc1cc(Nc2nc(NC(C)C)c3c(ccn3-c3ccc4c(c3)OCO4)n2)sn1", "IRAK4 kinase (Homo sapiens (Human), UniProt Q9NWZ3)", "6.00 to 7.00"],
  ["CCNC(=O)c1csc(Nc2nc(O[C@H]3CCOC3)c3c(ccn3-c3cnn(C)c3)n2)c1", "IRAK4 kinase (Homo sapiens (Human), UniProt Q9NWZ3)", "≥ 7.00"],
  ["Cc1cc(Nc2nc(NC(C)C)c3c(ccn3-c3cccc(S(C)(=O)=O)c3)n2)sn1", "IRAK4 kinase (Homo sapiens (Human), UniProt Q9NWZ3)", "5.00 to 6.00"],
  ["CN(C)C(=O)c1cc(Nc2nc(OC3CCOCC3)c3c(ccn3-c3cnn(C)c3)n2)cs1", "IRAK4 kinase (Homo sapiens (Human), UniProt Q9NWZ3)", "6.00 to 7.00"],
  ["Cn1cc(-n2ccc3nc(Nc4cnn(-c5cccnc5)c4)nc(O[C@H]4CCOC4)c32)cn1", "IRAK4 kinase (Homo sapiens (Human), UniProt Q9NWZ3)", "≥ 7.00"],
  ["Cn1cc(-n2ccc3nc(Nc4ccsc4)nc(O[C@H]4CCOC4)c32)cn1", "IRAK4 kinase (Homo sapiens (Human), UniProt Q9NWZ3)", "6.00 to 7.00"],
  ["Cn1cc(-n2ccc3nc(Nc4cc(C(=O)N5CCOCC5)cs4)nc(O[C@H]4CCOC4)c32)cn1", "IRAK4 kinase (Homo sapiens (Human), UniProt Q9NWZ3)", "≥ 7.00"]
]}

// query # query: pIC50 of entry COC1CCC(Oc2nc(Nc3cc(C)ns3)nc3ccn(-c4cnn(C)c4)c23)CC1 (centres unmarked)
// result 6.00 to 7.00
